# System: SK-MEL-2
# Assay Name: NCI tumour cell line growth inhibition, 48 h
Active and inactive are the calls of the source. No stated cut-off is given here; in the data, active = GI50 up to about 1.1 µM and inactive = higher.
Please answer using one outcome listed in active, inactive

{"Molecule": "CC1(C)C(=O)N(O)C(C)(C)N1O", "Label Class": "inactive"}
{"Molecule": "COC(=O)C1(C(=O)OC)CC2=C(S(=O)(=O)c3ccccc3)C[C@H](C#N)[C@H]2C1", "Label Class": "inactive"}
{"Molecule": "CN(C)Cc1ccc(O)c(CN(C)C)n1", "Label Class": "inactive"}

Hello, I am checking results. What call was entered for `O=C(Oc1ccccn1)c1cc2cc(CCl)ccc2oc1=O` ? inactive

Give the logged outcome of this assay for the following molecule: `CN(C)/C=C/C(=CC=[N+](C)C)/C=C/N(C)C.[O-][Cl+3]([O-])([O-])[O-]` inactive

In this assay, the call recorded for CCOC(=O)C(=[N+]=[N-])C(=O)C1(C(=O)OCC)CCN(C(=O)c2ccccc2)C1=O (stereo not given) was what? inactive

Hi team, can someone confirm the assay call for `O=c1n(CCO)nc2n1CCCN2` ? inactive

What outcome does the record of this test show for COc1ccc2oc(S(=O)(=O)N3CC(CCl)c4ccc([N+](=O)[O-])cc43)cc2c1 (stereo not given) ? active

Call for entry `CCOC(=O)c1nnsc1NC(=O)Nc1ccc(Cc2ccc(NC(=O)Nc3snnc3C(=O)OCC)cc2)cc1` : inactive

Would you mind telling me which call this test gave Cc1cccc(C)c1NC(=O)C1C(=O)N(c2c(C)cccc2C)C(=O)/C1=N\N (stereo not given) ? inactive

Please indicate how the test categorized `O=c1[nH]cnc2c(COCCO)c[nH]c12` . inactive

----------
# Tested on: U-251
# Assay Name: NCI tumour cell line growth inhibition, 48 h
Active and inactive are the calls of the source. Cut-off read from the data, not from the text of the source: active = GI50 up to about 1.1 µM and inactive = higher.
Reply using exactly one outcome from T (active), F (inactive)

// known answers, use as guide
{"Compound": "COc1ccc(/C=C/C(=O)Oc2ccccc2OC)cc1", "Label Class": "F"}
{"Compound": "Cc1ccc(S(=O)(=O)N2CC2CCCCC=O)cc1 (stereo unspecified)", "Label Class": "F"}

Dear all, I need the recorded test outcome for `CC1=CC(=O)/C(=C/NC(=S)C(N)=S)C(=O)O1` , thank you. F

Hey, what did the test say about `O[C@H]1[C@H](O)[C@H](O)CN2CCC[C@@H](O)[C@H]12` ? F

Which result was noted for this compound in the test: CC(=O)C1C(=O)C(=O)N(c2ccc([N+](=O)[O-])cc2[N+](=O)[O-])C1=O (stereo unspecified) F

Short answer needed: outcome of this test for [N-]=[N+]=NC1(Cc2ccccc2)C(=O)Nc2ccccc2C1=O (stereo unspecified) ? F

Per the assay record, what outcome was assigned to [N-]=[N+]=C1C(=O)C2CC3CC1CC2C3 (stereo unspecified) ? F

Could you kindly confirm the outcome this assay logged for `CCc1c(Cl)nc(Cl)nc1Cl` ? T

Recorded test call requested for OC(CC1SCCCS1)c1ccccc1 (stereo unspecified) F

What classification did `O=C1C=CC2(O[C@H](c3ccccc3)[C@@H](c3ccccc3)O2)[C@H](Sc2ccccc2O)C1` end up with in this test? T

What was the test verdict on C=C1CC(CC(=O)C(C)CC2CC(=C)C(=O)O2)OC1=O (stereo unspecified) ? F

----------
GI50 overview
# System: MDA-N
# Assay Name: NCI tumour cell line growth inhibition, 48 h
Active and inactive are the calls of the source. Rule as the data show it: active = GI50 up to about 1.1 µM and inactive = higher.

{"Compound": "C[N+](C)(CCNC(=O)c1cccc2cc3ccccc3nc12)Cc1ccc([N+](=O)[O-])cc1", "GI50": "> 100 µM (inactive)"}
{"Compound": "O=C(c1ccccc1)C1C(c2ccccc2[N+](=O)[O-])N1C1CCCCC1 (centres undefined)", "GI50": "2.06 µM (inactive)"}
{"Compound": "CCOP(C)(=O)C(N)Cc1ccc(OC)c(OC)c1 (centres undefined)", "GI50": "> 100 µM (inactive)"}
{"Compound": "CNC(=O)Nc1cc2c3c(c1)CCCN3CCC2", "GI50": "> 10 µM (inactive)"}
{"Compound": "COC(=O)C1=C(OC(=O)/C(=C/c2ccc(Cl)cc2)c2ccc(Cl)cc2)C(C(=O)OC)[C@@]2(O)[C@@H](C(=O)OC)[C@H](C)C[C@@H]1[C@@H]2C(=O)OC (some centres undefined)", "GI50": "> 100 µM (inactive)"}
{"Compound": "CCOP(=O)(CN1CCNCCN(CP(=O)(OCC)OCC)CC1)OCC", "GI50": "> 100 µM (inactive)"}

Kindly indicate its recorded GI50. Item: `CN(C)CCNC1=CC(=O)c2nc3ccccc3c3ccnc1c23` 7.78 µM (inactive)

Complete the entry with GI50 for O=C1/C(=C/c2ccc(Cl)cc2)N=C(c2ccccc2)N1C1Nc2cc3c(cc2S1)NC(N1C(=O)/C(=C/c2ccc(Cl)cc2)N=C1c1ccccc1)S3 (centres undefined) 45.2 µM (inactive)

Tell me its GI50 given C1CCN2CC3CCCN4CCCC(C2C1)C34 (centres undefined) as the entry. > 100 µM (inactive)

----------
# Test system: SK-MEL-5
# Assay Name: NCI tumour cell line growth inhibition, 48 h
Calls of active or inactive are those of the source. Rule as the data show it: active = GI50 up to about 1.1 µM and inactive = higher.
Answer with one of the outcomes 1 = active, 0 = inactive

As a guide, the following entries are already answered.
{"Compound": "O=[N+]([O-])c1ccc2c3c1[C@@H]1O[C@@H]1c1cccc(c1-3)[C@@H]1O[C@H]21", "Label Class": 0}
{"Compound": "CSC(=Nc1nnc(-c2ccc([N+](=O)[O-])cc2)s1)SC", "Label Class": 0}
{"Compound": "[N-]=[N+]=NC[C@H]1OCO[C@H](CN=[N+]=[N-])[C@@H](OCCOCCCl)[C@@H]1OCCOCCCl", "Label Class": 0}
{"Compound": "[N-]=[N+]=NC1(Cc2ccccc2)C(=O)Nc2ccccc2C1=O (stereo not drawn)", "Label Class": 0}
{"Compound": "CC(NC(=O)C(NC(=O)CNC(=O)OC(C)(C)C)C(C)C)C(=O)Oc1c(Cl)c(Cl)c(Cl)c(Cl)c1Cl (stereo not drawn)", "Label Class": 0}

Call for entry O=C(c1ccccc1)C1C(c2ccccc2[N+](=O)[O-])N1C1CCCCC1 (stereo not drawn) : 0

Answer briefly: the call reported for `CCOC(=O)c1c(C)n(C)c2c1cc(O)c1[nH]c3c(c12)CCCC3` in this assay. 0

What classification did N#CC(NNC(=O)c1c(Cl)c(Cl)c(Cl)c(Cl)c1-c1nc2cc(C(=O)c3ccccc3)ccc2[nH]1)c1cccc(Oc2ccccc2)c1 (stereo not drawn) end up with in this test? 0

----------
# Tested on: BT-549
# Assay Name: NCI tumour cell line growth inhibition, 48 h
The source made the active and inactive calls. No stated cut-off is given here; in the data, active = GI50 up to about 1.1 µM and inactive = higher.
The categories you may choose from are YES = active, NO = inactive

{"Compound": "Nc1ccc2c(c1)Cc1ccccc1-2", "Label Class": "NO"}
{"Compound": "CCOP(C)(=O)C(N)Cc1ccc(OC)c(OC)c1 (configuration not stated)", "Label Class": "NO"}
{"Compound": "COc1cc(C2C=C(c3ccccc3)Oc3cc4c(cc32)OCO4)cc(OC)c1OC (configuration not stated)", "Label Class": "YES"}
{"Compound": "NC(CSC(=O)c1ccccc1)C(=O)O (configuration not stated)", "Label Class": "NO"}
{"Compound": "CN(C)Cc1ccc(O)c(CN(C)C)n1", "Label Class": "NO"}

Record lookup: outcome of this test for `CNC(=O)Nc1cc2c3c(c1)CCCN3CCC2` ? NO

What did this assay record as the result for CCOC(=O)C(Cc1ccc(OC(=O)OC(C)(C)C)cc1)NC(=O)OC(C)(C)C (configuration not stated) ? NO

----------
// reported GI50 per item
# System: LOX IMVI
# Assay Name: NCI tumour cell line growth inhibition, 48 h
Calls of active or inactive are those of the source. Rule as the data show it: active = GI50 up to about 1.1 µM and inactive = higher.

Previously resolved entries follow.
{"Compound": "Cn1c(=O)oc2cc(Br)ccc21", "Measured On": "LOX IMVI", "GI50": "> 100 µM (inactive)"}
{"Compound": "Cc1nc(Nc2nnc(-c3cc([N+](=O)[O-])cc([N+](=O)[O-])c3C)o2)sc1C(=O)CC(=O)Cc1nc2ccc(Cl)cc2nc1O", "Measured On": "LOX IMVI", "GI50": "> 100 µM (inactive)"}
{"Compound": "O=[PH](O)c1cc2ccccc2c2ccccc12", "Measured On": "LOX IMVI", "GI50": "> 100 µM (inactive)"}
{"Compound": "COc1ccc(NC(=O)/C(=C/c2ccc(N(CCC#N)CCC#N)cc2)NC(=O)c2cc([N+](=O)[O-])ccc2Cl)cc1", "Measured On": "LOX IMVI", "GI50": "18.4 µM (inactive)"}

Report measured GI50; entry is C1CCN2CC3CCCN4CCCC(C2C1)C34 (stereo not given) > 100 µM (inactive)

----------
Entries annotated with measured GI50
# Test system: NCI-H522
# Assay Name: NCI tumour cell line growth inhibition, 48 h
The source made the active and inactive calls. No stated cut-off is given here; in the data, active = GI50 up to about 1.1 µM and inactive = higher.

{"Compound": "CN(CN1C(=O)C2Cc3ccccc3CN2C1=O)c1ccccn1 (stereo unspecified)", "GI50": "> 100 µM (inactive)"}
{"Compound": "N=C(N)Nc1nc2cc([N+](=O)[O-])ccc2[nH]1", "GI50": "68.5 µM (inactive)"}
{"Compound": "CC(=O)Oc1ccc2c(c1)c1c(OC(C)=O)c3ccccc3c(OC(C)=O)c1n2Cc1cccc(C)c1", "GI50": "19.6 µM (inactive)"}
{"Compound": "N/C(=N\\Nc1ccc(Cl)cc1)c1cnccn1", "GI50": "28.3 µM (inactive)"}
{"Compound": "CN(C)c1cc2ccccc2oc1=O", "GI50": "> 100 µM (inactive)"}

Could you now look at the following compound, please?
Supply reported GI50 belonging to this compound: `COc1cc(Nc2nc3cc(C(F)(F)F)ccc3nc2C)cc(OC)c1OC` 12.3 µM (inactive)
